Molecular target: T1, human interleukin-2 receptor α-chain (IL-2Rα; CD25), recombinant protein (human, UniProt P01589 22-240, limits assumed)
T1 construct: also called huIL2R-a; hIL-2RA
T1 sequence: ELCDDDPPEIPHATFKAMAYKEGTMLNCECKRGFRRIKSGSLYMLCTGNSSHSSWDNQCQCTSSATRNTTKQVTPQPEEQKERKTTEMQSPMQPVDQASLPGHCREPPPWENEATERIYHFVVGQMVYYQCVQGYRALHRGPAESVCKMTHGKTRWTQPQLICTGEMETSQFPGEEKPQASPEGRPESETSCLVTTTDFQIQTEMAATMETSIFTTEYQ
Assay: ELISA, bivalent VHH-hFc
// reported EC50 per item
Express it in nM; write the number only.

Ask | Returns the measured EC50 for the input binder. Input: 10-MP05F03 VHH-hFc, monospecific bivalent (Fc fusion, IgG1 Fc LALA-PG; also called anti-IL-2Rα Ab 10; anti-IL-2Rα VHH 10; not shown: human IgG1 CH2 and CH3 domains (Fc)) QVQLVESGGGLVQAGGSLRLSCAASGIPFDNYAMGWFRQAPGKEREFVAARDLEGIITRYGDSVKGRFTISRGNAKNTVFLQMNSLKPEDTAVYYCAARDGGVVAGSRSSAQYNYWGQGTQVTVSS
Reply | 0.061

Ask | Returns the measured EC50 for the input binder. Input: 11-MP05H04 VHH-hFc, monospecific bivalent (Fc fusion, IgG1 Fc LALA-PG; not shown: human IgG1 CH2 and CH3 domains (Fc)) QLQLVESGGGLVQAGGSLRLSCAASGLTFEGYAIGWFRQAPGKEREGVSYITGSDGTTYYINSVKGRFTISSDNAKSTVYLQMNTLKPEDTAVYYCAVDRLGSQGRYASAWWRSGDMDLWGKGTQVTVSS
Reply | 0.093
